# Test system: EfPiwi piRISC loaded with piRNA #1 (26 nt)
# experiment.notes: pre-steady-state target cleavage rate (min^-1); auxiliary factor: 500 nM Ephydatia muelleri Gtsf1; guide: piRNA #1 5'p-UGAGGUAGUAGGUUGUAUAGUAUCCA; higher = faster piRNA-guided slicing of the target
Each entry below carries its recorded pre-steady-state target cleavage rate.
Reply briefly: the number, and no unit.

>>> measured_result("GGAGUGGAUACUAUUCAACGUACUACCUCA")
0.00373
>>> measured_result("GGAGUGCAUACUAUACAACGUACUACCUCA")
0.00739
>>> measured_result("GGAGACGAAACUAUACAUCCUACUACCUCA")
0.00655
>>> measured_result("GGAGUGGAUACUAUACAACCGACUACCUCA")
0.00469
>>> measured_result("GGAGACCUUACUAUACGACCUACUACCUCA")
0.016

pre-steady-state target cleavage rate recorded for this sequence, GGAGACCAUACUAUACAACCCACUACCUCA , is 0.0058

pre-steady-state target cleavage rate recorded for this sequence, GGAGACCAUACUAUACACCUACUACCUCA , is 0.00694

pre-steady-state target cleavage rate recorded for this sequence, GGAGACCUAACUAUACAACCUACUACCUCG [g2:g21:cont:t1G] , is 0.0178

pre-steady-state target cleavage rate recorded for this sequence, GGAGUGGACACUAUACAACCUACUACCUCA , is 0.115

pre-steady-state target cleavage rate recorded for this sequence, GGAGAGGAUACUAUACAACCUACUACCUA , is 0.217

* * *

# Tested on: MILI (PIWIL2) piRISC loaded with L1MC piRNA (26 nt);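 also: 1 nM active piRISC with 0.1 nM target library at 33 °C single turnover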
# experiment.notes: pre-steady-state target cleavage rate (min^-1); guide: L1MC piRNA 5'p-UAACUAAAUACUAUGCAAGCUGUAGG; higher = faster piRNA-guided slicing of the target
# test.conditions: auxiliary factor: 500 nM mouse GTSF1
Each entry below carries its recorded pre-steady-state target cleavage rate.
Reply briefly: the number, and no unit.

Reference set (3 entries):
>>> measured_result("UCCUGGAUCAGCUUGCGUAGUAUUUAGUUA")
0.192
>>> measured_result("UCCUGGAACACCUUGCAUAGUAUUUUGUUA")
0.14
>>> measured_result("UCCUGGAUGUGCUUGCAAGUAUUUAGUUA")
0.00781

pre-steady-state target cleavage rate recorded for this sequence, UCCUGGAACAGCUUGGAUACUAUUUAGUUA , is 0.0744

pre-steady-state target cleavage rate recorded for this sequence, UCCUGGAUGUCGUUGCAGAGUAUUUAGUUA , is 0.0117

pre-steady-state target cleavage rate recorded for this sequence, UCCUGCUACAGGUAGCAUAGUAUUUAGUUA , is 0.367

pre-steady-state target cleavage rate recorded for this sequence, UCCUCCUACAGCUACCAUAGUAUUUAGAAA , is 0.0576

* * *

# Test system: EfPiwi piRISC loaded with piRNA #1 (26 nt)
# experiment.notes: pre-steady-state target cleavage rate (min^-1); auxiliary factor: 500 nM Ephydatia muelleri Gtsf1; guide: piRNA #1 5'p-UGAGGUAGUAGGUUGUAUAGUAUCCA; MIWI and MILI are mouse PIWI proteins and EfPiwi is from a freshwater sponge; tags in brackets are library labels; higher = faster piRNA-guided slicing of the target
Each entry below carries its recorded pre-steady-state target cleavage rate.
Reply briefly: the number, and no unit.

>>> measured_result("GGAGUGGAUACUAUACAACCUAGUACCUGA")
0.00271
>>> measured_result("GGAGAGGAUACUAUACAACCUACUGACCUCA")
0.00473
>>> measured_result("GGAGACCUAUCUAUACAACCUACUACGUCA")
0.00352

pre-steady-state target cleavage rate recorded for this sequence, GGAGACCAUACUAUACAACCUAGUAGCUCA , is 0.00225

pre-steady-state target cleavage rate recorded for this sequence, GGAGAGGAUACUAUUCAACCUACUUCCUCA , is 0.00313

pre-steady-state target cleavage rate recorded for this sequence, GGAGACCUUACUACUACAACCUACUACCUCA , is 0.00852

pre-steady-state target cleavage rate recorded for this sequence, GGAGACCUAACUAUACAAGCCUACUACCUCA , is 0.00432

pre-steady-state target cleavage rate recorded for this sequence, GGAGACCAGUACUAUACAACCUACUACCUCA , is 0.0152

pre-steady-state target cleavage rate recorded for this sequence, GGAGUGGAUACUAUUCAAGCUACUACCUCA , is 0.0053

pre-steady-state target cleavage rate recorded for this sequence, GGAGAGGAUACUUUACAACCUACUAGCUCA , is 0.00183
